- Tested on: N-acetyl-5-methoxytryptamine receptors
- experimental details: biological activity by classical tests (agonist/antagonist character)
metric: Activity

For orientation, consider the following solved cases.
INSERT INTO results (molecule, assay_result) VALUES
  ('COc1ccc2[nH]c(C)c(CCNC(C)=O)c2c1 [Compound 4a]', 'Agonist'),
  ('COc1ccc2[nH]c(I)c(CCNC(C)=O)c2c1 [Compound 4k]', 'Agonist'),
  ('COc1cc2c(CCNC(C)=O)c(Br)[nH]c2cc1Br [Compound 4l]', 'Agonist'),
  ('COc1ccc2[nH]cc(CCNC(C)=O)c2c1 [Melatonin, N-Acetyl-5-methoxytryptamine, reference compound]', 'Agonist');

Item: COc1ccc2[nH]c(-c3ccccc3)c(CCNC(=O)C3CC3)c2c1 [Compound 4g] | Activity: Partial antagonist

Item: COc1ccc2[nH]c(Br)c(CCNC(C)=O)c2c1 [Compound 4j, N-acetyl-2-bromo-5-methoxy tryptamine] | Activity: Agonist

Item: COc1ccc2[nH]c(C)c(CCNC(=O)C3CC3)c2c1 [Compound 4e] | Activity: Agonist

Item: COc1ccc2[nH]c(C3CCCCC3)c(CCNC(C)=O)c2c1 [Compound 4c] | Activity: Partial antagonist

Item: COc1ccc2[nH]c(I)c(CCNC(=O)C3CC3)c2c1 [Compound 4i] | Activity: Agonist
